Where do these numbers come from? They come from patent US6380181B1.

Entries annotated with measured inhibition spot diameter in the agar diffusion test
# Test system: Pseudomonas aeruginosa SG 137 (carbenicillin-resistant)
# assay_procedure: Agar diffusion test
# Assay type: cell-based
# settings: concentration 100 μg/ml; P. aeruginosa SG 137
Use mm as the unit, but write only the number.

Query string: Form field: reported inhibition spot diameter in the agar diffusion test of CC1(C)S[C@@H]2[C@H](NC(=O)[C@H](N)c3ccccc3)C(=O)N2[C@H]1C(=O)O [Ampicillin, reference compound]
Result string: 0

Query string: Looking for the measured inhibition spot diameter in the agar diffusion test of COC(=O)Oc1cccc(C(=O)N(C)c2ccc(C(=O)N[C@@H](C(=O)N[C@@H]3C(=O)N4[C@@H]3SC(C)(C)[C@@H]4C(=O)O)c3ccccc3)cc2)c1OC(=O)OC [Substance Na-37] , can you help?
Result string: 22

Query string: Fill blank: measured inhibition spot diameter in the agar diffusion test of the compound CC(=O)OC[C@H](NC(=O)c1cccc(OC(C)=O)c1OC(C)=O)C(=O)N[C@@H](C(=O)N[C@@H]1C(=O)N2[C@@H]1SC(C)(C)[C@@H]2C(=O)O)c1ccccc1 [Substance 32] is ____.
Result string: 16

Query string: Entry COC(=O)Oc1cccc(C(=O)N2COC[C@H]2C(=O)N[C@@H](C(=O)N[C@@H]2C(=O)N3[C@@H]2SC(C)(C)[C@@H]3C(=O)O)c2ccccc2)c1OC(=O)OC [Substance 30] : reported inhibition spot diameter in the agar diffusion test = ?
Result string: 22

Query string: inhibition spot diameter in the agar diffusion test lookup needed for CC(=O)Oc1cccc(C(=O)Nc2ccccc2C(=O)N[C@@H](C(=O)N[C@@H]2C(=O)N3[C@@H]2SC(C)(C)[C@@H]3C(=O)O)c2ccccc2)c1OC(C)=O [Substance 28] , thanks.
Result string: 20
